Tested on: Mycosphaerella graminicola; Anamorph: Septoria tritici; Bayer Code SEPTTR
Experiment: Leaf blotch of wheat, foliar fungicide treatment, one day protectant (1DP) or three day curative (3DC)
Assay type: in vivo, Septoria tritici on wheat plants (variety Yuma)
Conditions: Zymoseptoria tritici, 24 h, one day protectant (1DP), 100 ppm, rating of percent disease control, read-out: SEPTTR 1DP 100 ppm
Value kind: pest or weed control at 100 ppm

COc1cc(COc2ncc(F)c(N)n2)c(OC)cc1C [Compound 450] :: 76 to 100%
Nc1nc(OC(=O)c2ccccc2)ncc1F [Compound 413] :: 76 to 100%

Dear colleague, I am looking for the recorded pest or weed control at 100 ppm of the following compound: Cc1ccc(COc2ncc(F)c(NNc3ccccc3)n2)cc1 [Compound 766]
51 to 75%

And the next one, CNc1nc(OCc2ccc(OC)cc2)ncc1F [Compound 339] ?
26 to 50%

* * *

Test system: Mycosphaerella graminicola; Anamorph: Septoria tritici; Bayer Code SEPTTR
Test: Leaf blotch of wheat, foliar fungicide treatment, one day protectant (1DP) or three day curative (3DC)
Format: in vivo, Septoria tritici on wheat plants (variety Yuma)
Conditions: Zymoseptoria tritici, 24 h, one day protectant (1DP), 25 ppm, rating of percent disease control, read-out: SETTTR 1DP 25 ppm
Value kind: pest or weed control at 25 ppm

Some compounds with recorded pest or weed control at 25 ppm:
COc1ccc(COc2ncc(F)c(N)n2)cc1C(F)(F)F :: 76 to 100%
NN(Cc1ccccc1)c1nc(OCc2ccc(F)cc2)ncc1F :: 76 to 100%
COc1ccccc1COc1ncc(F)c(/N=C2\CCCCN2C)n1 :: 51 to 75%

Dear colleague, I am looking for the recorded pest or weed control at 25 ppm of the following compound: `CC(C)Oc1ccc(COc2ncc(F)c(N)n2)cc1`
76 to 100%

And the next one, `CCCCCNC(=S)Nc1nc(OCc2ccc(C)cc2)ncc1F` ?
76 to 100%

And the next one, `Fc1cnc(OCc2ccccc2)nc1NNc1ccccc1` ?
0 to 25%

And the next one, `Nc1nc(Oc2ccc(Cl)nc2)ncc1F` ?
26 to 50%

And the next one, `CN(C)/C=N/c1nc(OCc2cccc(C#N)c2)ncc1F` ?
76 to 100%

And the next one, `Cc1c(F)c(F)c(COc2ncc(F)c(N)n2)c(F)c1F` ?
76 to 100%

* * *

Test system: Mycosphaerella graminicola; Anamorph: Septoria tritici; Bayer Code SEPTTR
Assay: Leaf blotch of wheat, foliar fungicide treatment, one day protectant (1DP) or three day curative (3DC)
Type: in vivo, Septoria tritici on wheat plants (variety Yuma)
Conditions: Zymoseptoria tritici, 24 h, one day protectant (1DP), 100 ppm, rating of percent disease control, read-out: SEPTTR 1DP 100 ppm
Value kind: pest or weed control at 100 ppm

CC(C)Oc1ncc(F)c(N)n1 :: 0 to 25%
Nc1nc(OCc2cccc(O)c2)ncc1F :: 0 to 25%
COCCOC(=O)Nc1nc(OCc2ccc(C)cc2)ncc1F :: 76 to 100%

What value of pest or weed control at 100 ppm on Mycosphaerella graminicola; Anamorph: Septoria tritici; Bayer Code SEPTTR does `CN(CCOc1ncc(F)c(N)n1)c1ccccc1` have?
76 to 100%

And the next one, `O=C(Nc1nc(OCc2ccc(F)cc2)ncc1F)OCCl` ?
76 to 100%

And the next one, `CCOC(=O)COC(=O)Nc1nc(OCc2cccc(F)c2)ncc1F` ?
76 to 100%

And the next one, `COc1ccc(COc2ncc(F)c(N)n2)cc1C` ?
76 to 100%

And the next one, `C=C(C)COc1ncc(F)c(N)n1` ?
0 to 25%

And the next one, `Cc1ccc(COc2ncc(F)c(NN)n2)cc1` ?
51 to 75%

And the next one, `COc1cccc(COc2ncc(F)c(NNC3CCCCC3)n2)c1` ?
76 to 100%

And the next one, `Cc1c(F)c(F)c(COc2ncc(F)c(N)n2)c(F)c1F` ?
76 to 100%

And the next one, `Nc1nc(OCc2cccc(Cl)c2)ncc1F` ?
76 to 100%

And the next one, `CCOc1ccccc1COc1ncc(F)c(N)n1` ?
76 to 100%

And the next one, CCC(Oc1ncc(F)c(N)n1)c1ccc(F)cc1 (stereo not shown) ?
76 to 100%

And the next one, `N#Cc1cccc(COc2ncc(F)c(NC(=O)NCc3ccccc3)n2)c1` ?
0 to 25%

And the next one, `ON(c1nc(OCc2ccc(F)cc2)ncc1F)C1CCCCC1` ?
76 to 100%

And the next one, `COc1cccc(COc2ncc(F)c(NCc3ccccc3F)n2)c1` ?
0 to 25%

And the next one, `O=C(NCc1ccccc1F)Nc1nc(OCc2ccc(F)cc2)ncc1F` ?
0 to 25%

And the next one, `COc1ccccc1CCOc1ncc(F)c(N)n1` ?
51 to 75%

* * *

Test system: Mycosphaerella graminicola; Anamorph: Septoria tritici; Bayer Code SEPTTR
Assay: Leaf blotch of wheat, foliar fungicide treatment, one day protectant (1DP) or three day curative (3DC)
Type: in vivo, Septoria tritici on wheat plants (variety Yuma)
Conditions: Zymoseptoria tritici, 72 h, three day curative (3DC), 25 ppm, percent control rating, read-out: SEPTTR 3DC 25 ppm
Value kind: pest or weed control at 25 ppm

Dear colleague, I am looking for the recorded pest or weed control at 25 ppm of the following compound: `Oc1ncc(F)c(N(O)Cc2ccccc2)n1`
26 to 50%

* * *

Test system: Mycosphaerella graminicola; Anamorph: Septoria tritici; Bayer Code SEPTTR
Test: Leaf blotch of wheat, foliar fungicide treatment, one day protectant (1DP) or three day curative (3DC)
Format: in vivo, Septoria tritici on wheat plants (variety Yuma)
Settings: Zymoseptoria tritici, 24 h, one day protectant (1DP), 25 ppm, rating of percent disease control, read-out: SETTTR 1DP 25 ppm
Reported pest or weed control at 25 ppm values follow for various compounds

Some compounds with recorded pest or weed control at 25 ppm:
CCCNC(=S)Nc1nc(OCc2cccs2)ncc1F [Compound 528] :: 76 to 100%
CCOC(=O)Nc1nc(OC(C)c2ccc(F)cc2)ncc1F (stereo not drawn) [Compound 749] :: 76 to 100%

Turning now to a further compound:
Dear colleague, I am looking for the recorded pest or weed control at 25 ppm of the following compound: CCOCc1cccc(COc2ncc(F)c(N)n2)c1 [Compound 543]
76 to 100%

* * *

Tested on: Mycosphaerella graminicola; Anamorph: Septoria tritici; Bayer Code SEPTTR
Assay: Leaf blotch of wheat, foliar fungicide treatment, one day protectant (1DP) or three day curative (3DC)
Assay type: in vivo, Septoria tritici on wheat plants (variety Yuma)
Settings: Zymoseptoria tritici, 24 h, one day protectant (1DP), 100 ppm, rating of percent disease control, read-out: SEPTTR 1DP 100 ppm
Reported pest or weed control at 100 ppm values follow for various compounds

Nc1nc(OCCN2CCCC2=O)ncc1F [Compound 270] :: 0 to 25%

Dear colleague, I am looking for the recorded pest or weed control at 100 ppm of the following compound: Cn1ccc(COc2ncc(F)c(NCO)n2)n1 [Compound 245]
76 to 100%

And the next one, CC(C)(C)Oc1cccc(COc2ncc(F)c(N)n2)c1 [Compound 385] ?
76 to 100%

* * *

System: Mycosphaerella graminicola; Anamorph: Septoria tritici; Bayer Code SEPTTR
Test: Leaf blotch of wheat, foliar fungicide treatment, one day protectant (1DP) or three day curative (3DC)
Assay type: in vivo, Septoria tritici on wheat plants (variety Yuma)
Conditions: Zymoseptoria tritici, 24 h, one day protectant (1DP), 25 ppm, rating of percent disease control, read-out: SETTTR 1DP 25 ppm
Value kind: pest or weed control at 25 ppm

Some compounds with recorded pest or weed control at 25 ppm:
CN(C)/C=N/c1nc(OC(=O)c2ccc(Cl)cc2Cl)ncc1F [Compound 260] :: 76 to 100%
COc1ccc(S(=O)(=O)Oc2ncc(F)c(/N=C/N(C)C)n2)cc1 [Compound 264] :: 51 to 75%
Fc1cnc(OCc2cccs2)nc1NCOCc1ccccc1 [Compound 506] :: 26 to 50%
CC(Oc1ncc(F)c(N)n1)c1cccc(I)c1 (stereo not drawn) [Compound 798] :: 76 to 100%
Nc1nc(OCc2ccc(C(F)(F)F)nc2)ncc1F [Compound 184] :: 76 to 100%
CCOCNc1nc(OCc2cccc(C#N)c2)ncc1F [Compound 516] :: 76 to 100%
O=C(Nc1nc(OCc2cccc(F)c2)ncc1F)OCc1cccc(F)c1 [Compound 360] :: 76 to 100%
COCNc1nc(OCc2ccc(F)cc2)ncc1F [Compound 362] :: 51 to 75%
CCC(Nc1nc(OCc2ccc(F)cc2)ncc1F)Nc1nc(OCc2ccc(F)cc2)ncc1F [Compound 238] :: 0 to 25%
CCOC(=O)CCC(=O)NNc1nc(OCc2ccccc2)ncc1F [Compound 344] :: 26 to 50%

Dear colleague, I am looking for the recorded pest or weed control at 25 ppm of the following compound: N#Cc1cccc(COc2ncc(F)c(NC(=S)Nc3ccccc3F)n2)c1 [Compound 781]
0 to 25%

And the next one, N#Cc1cc(COc2ncc(F)c(N)n2)ccn1 [Compound 437] ?
0 to 25%

And the next one, Cc1ccc(COc2ncc(F)c(NC(=O)Cc3ccccc3)n2)cc1 [Compound 497] ?
51 to 75%
